Exercise: for every item that follows, state its recorded Kd.
tested_target: T1, biotinylated native human ApoC3 (human, UniProt P02656 21-99, biotinylated (site not stated))
T1 construct: also called biotinylated human ApoC3
T1 sequence (P02656 21-99): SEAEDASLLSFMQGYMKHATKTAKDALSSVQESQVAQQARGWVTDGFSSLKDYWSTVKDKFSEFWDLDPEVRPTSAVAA
protocol: SPR, scFv-Fc over biotinylated ApoC3 on SA chip, pH 7.4
Reply with just the number (in nM).

Q: Returns the measured Kd for the input binder. Input: 5E5VH12_VLWT scFv-Fc (scFv, part only; not given: Linker, domain order, Fc, V domains shown, not shown: another chain or arm of the molecule; a dimerising Fc or GST; small tags and cut ends) VH: QLQLVESGGGLVQPGGSLRLSCAASGFTFGTYSMRWVRQVPRKALEWVSSISTDGGGTAYRDSVKGRFTISRDNAKNTLYLQMNNLKPEDTAIYYCVIHGYSDWGQGTQVTVSS VL: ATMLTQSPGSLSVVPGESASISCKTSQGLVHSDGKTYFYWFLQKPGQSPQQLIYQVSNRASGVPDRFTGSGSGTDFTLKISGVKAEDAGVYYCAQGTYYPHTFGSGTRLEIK
A: 0.51

Q: Need Kd of 5E5VH5_VLWT scFv-Fc (scFv, part only; not given: Linker, domain order, Fc, V domains shown, not shown: another chain or arm of the molecule; a dimerising Fc or GST; small tags and cut ends) VH: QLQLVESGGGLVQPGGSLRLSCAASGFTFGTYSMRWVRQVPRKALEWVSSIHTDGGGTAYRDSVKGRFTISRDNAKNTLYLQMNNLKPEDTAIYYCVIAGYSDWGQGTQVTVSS VL: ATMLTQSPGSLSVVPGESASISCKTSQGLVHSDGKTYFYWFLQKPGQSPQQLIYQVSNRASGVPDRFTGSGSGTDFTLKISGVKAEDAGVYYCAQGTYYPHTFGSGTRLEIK , thanks.
A: 0.59

Q: Kd lookup needed for 5E5WT scFv-Fc (scFv, part only; not given: Linker, domain order, Fc, V domains shown, not shown: another chain or arm of the molecule; a dimerising Fc or GST; small tags and cut ends) VH: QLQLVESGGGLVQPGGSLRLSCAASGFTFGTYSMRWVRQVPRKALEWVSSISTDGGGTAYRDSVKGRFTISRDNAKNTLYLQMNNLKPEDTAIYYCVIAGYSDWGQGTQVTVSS VL: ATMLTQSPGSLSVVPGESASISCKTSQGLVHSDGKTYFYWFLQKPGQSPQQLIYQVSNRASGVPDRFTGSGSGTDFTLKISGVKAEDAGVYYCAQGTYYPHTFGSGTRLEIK , thanks.
A: 0.02

Q: Form field: reported Kd of 5E5VHWT_VL8 scFv-Fc (scFv, part only; not given: Linker, domain order, Fc, V domains shown, not shown: another chain or arm of the molecule; a dimerising Fc or GST; small tags and cut ends) VH: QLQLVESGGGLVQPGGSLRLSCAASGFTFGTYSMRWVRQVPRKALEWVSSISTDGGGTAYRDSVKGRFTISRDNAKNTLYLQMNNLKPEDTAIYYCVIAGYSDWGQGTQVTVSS VL: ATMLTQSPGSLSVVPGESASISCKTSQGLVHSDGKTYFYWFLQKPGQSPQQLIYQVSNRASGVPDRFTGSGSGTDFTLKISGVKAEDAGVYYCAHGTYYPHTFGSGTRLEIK
A: 0.58
